FYI, the data here is from the supplement of paper PMC12645437.

# subject.of.test: T1, CRBN, Q96SW2
# T1 chain: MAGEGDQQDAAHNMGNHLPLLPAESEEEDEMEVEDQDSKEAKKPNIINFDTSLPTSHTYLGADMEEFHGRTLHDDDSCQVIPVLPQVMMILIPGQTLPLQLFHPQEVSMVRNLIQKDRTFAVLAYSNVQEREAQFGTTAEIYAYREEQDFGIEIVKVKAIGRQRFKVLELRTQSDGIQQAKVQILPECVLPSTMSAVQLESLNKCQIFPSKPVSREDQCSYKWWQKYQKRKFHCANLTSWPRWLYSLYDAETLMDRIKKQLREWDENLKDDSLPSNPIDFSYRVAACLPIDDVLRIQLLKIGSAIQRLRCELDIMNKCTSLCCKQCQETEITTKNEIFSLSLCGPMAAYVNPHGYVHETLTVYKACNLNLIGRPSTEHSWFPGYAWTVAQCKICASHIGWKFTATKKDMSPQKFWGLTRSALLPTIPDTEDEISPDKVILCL
# experimental.protocol: log2 fold change of degron read counts, EGFP-low vs EGFP+ sorted cells (limma voom), compound-induced degradation; higher = more compound-induced degradation of the degron-EGFP fusion; degrons are variants of IKZF1/3 zinc finger 2; compound dose not given here;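 also: pooled lentiviral library of zinc finger degron-EGFP fusions in mCherry-positive Jurkat cells, FACS-sorted after compound exposure, with degron abundance counted by next-generation sequencing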
# reported.conditions: Jurkat; 18 h; compound: compound 22 (5-morpholino-thalidomide)
The full ranking holds about 8,300 sequences; the median of “log2 fold change of degron read counts, EGFP-low vs EGFP+ sorted cells (limma voom), compound-induced degradation” is about -1.1, and the highest 2% start at about 3.2. This excerpt belongs to a sample that is enriched for the highest values.
endpoint.label: log2 fold change of degron read counts

// query Value lookup for log2 fold change of degron read counts; key = FQCDVCGAQFTQKGNLLRHIKL [46F_47Q_49D_50V_52G_53A_54Q_55F_67L_, Q9UKT9]
// result 0.635

// query // returns reported log2 fold change of degron read counts for input FWCDVCGAQFTQKGNLLRHIKL [46F_47W_49D_50V_52G_53A_54Q_55F_67L_, Q9UKT9]
// result 3.85

// query Given FHCDVCGAQFTQKGNLLRHIKL [46F_47H_49D_50V_52G_53A_54Q_55F_67L_, Q9UKT9] , state its recorded log2 fold change of degron read counts.
// result 0.385

// query Quick one: log2 fold change of degron read counts for FVCDVCGAQFTQKGNLLRHIKL [46F_47V_49D_50V_52G_53A_54Q_55F_67L_, Q9UKT9] ?
// result 0.889
